Origin of the recorded values: ChEMBL document CHEMBL1127739

Known EC50 of a selection of molecules
# target-under-test: Mu-type opioid receptor (Cavia porcellus, UniProt P97266)
# Sequence (P97266 whole entry): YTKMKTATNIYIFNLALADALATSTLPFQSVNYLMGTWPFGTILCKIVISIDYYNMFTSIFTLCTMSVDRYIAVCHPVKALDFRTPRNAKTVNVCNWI
# run-description: Effective concentration was measured towards mu opioid receptor using guinea pig ileum (GPI, mu) bioassay in vitro
I only need the number, in nM, no unit after it.

molecule: Cc1cc(O)cc(C)c1[C@H](C)[C@H](N)C(=O)N[C@H](C)C(=O)N[C@@H](Cc1ccccc1)C(=O)N[C@@H](CC(=O)O)C(=O)N[C@H](C(=O)N[C@H](C(=O)NCC(N)=O)C(C)C)C(C)C
target-under-test: Mu-type opioid receptor (Cavia porcellus, UniProt P97266)
u: nM
EC50: 3840

We next turn to a different molecule, shown below.
Ask: State its EC50: "Cc1cc(O)cc(C)c1[C@H](C)[C@H](N)C(=O)N[C@H]1C(=O)NCC(=O)N[C@@H](Cc2ccccc2)C(=O)N[C@@H](C(=O)O)C(C)(C)SSC1(C)C"
Reply: 293
